Biological target: His-Brd2(60-472) (Homo sapiens (Human))
Sequence (P25440 60-472): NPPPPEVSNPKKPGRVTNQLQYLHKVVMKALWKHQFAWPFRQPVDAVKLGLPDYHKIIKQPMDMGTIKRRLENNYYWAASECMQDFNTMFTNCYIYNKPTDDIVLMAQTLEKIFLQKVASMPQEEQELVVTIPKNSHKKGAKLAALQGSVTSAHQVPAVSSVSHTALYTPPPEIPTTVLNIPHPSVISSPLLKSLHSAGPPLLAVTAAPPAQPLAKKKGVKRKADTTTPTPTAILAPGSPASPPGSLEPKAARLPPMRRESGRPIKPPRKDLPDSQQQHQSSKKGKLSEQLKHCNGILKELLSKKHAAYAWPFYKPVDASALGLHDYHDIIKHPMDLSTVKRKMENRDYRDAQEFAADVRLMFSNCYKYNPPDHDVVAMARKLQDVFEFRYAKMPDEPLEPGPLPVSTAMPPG
Test: TR-FRET in-vitro binding assay for BRD2
Details: biochemical
pIC50: −log10 of the molar value.
The label depends only on pIC50: Yes if it is at least 7, No if it is smaller.

Quick check: does Cc1c2c(nn1C)C(=O)N(c1ccc3nnc(C)n3c1)C2c1ccc(Cl)cc1 (stereo not shown) have pIC50 greater than or equal to 7?
No

# bool: pIC50 of CCc1nn(C2CC2)c2c1C(c1ccc(Cl)cc1)N(c1cc(C)c(=O)n(C)c1)C2=O (stereo not shown) >= 7
Yes

Does the molecule Cc1nn(C2CC2)c2c1C(c1ccc(Cl)cc1)N(c1cc(N(C)C(=O)OC(C)(C)C)c3nnc(C)n3n1)C2=O (stereo not shown) have recorded pIC50 that is 7 or more?
No

pIC50 >= 7 for CCn1nc(C)c2c1C(=O)N(c1cc(C)c3nnc(C)n3c1)C2c1ccc(Cl)cc1 (stereo not shown) ?
Yes

Please indicate if the recorded pIC50 for Cc1nn(-c2ccnn2C)c2c1C(c1ccc(Cl)cc1)N(c1cc(C)c3nnc(C)n3c1)C2=O (stereo not shown) meets or exceeds 7.
Yes

Entry COc1ncccc1-n1nc(C)c2c1C(=O)N(c1cc(C)c3nnc(C)n3n1)C2c1ccc(Cl)cc1 (stereo not shown) : is its pIC50 no less than 7?
Yes

* * *

Reported Property: IC50
State the value, then name its unit.

Observed IC50 on His-Brd4(44-477) (Homo sapiens (Human), UniProt O60885), entry CCc1nn(C)c2c1C(c1ccc(Cl)cc1)N(c1cc(OC)c3nnc(C)n3c1)C2=O (stereo not drawn) [Example 105] , equals 68 nM

The reported His-Brd4(44-477) (Homo sapiens (Human), UniProt O60885) IC50 of COc1ncc(-n2nc3c(c2C(F)(F)F)C(c2ccc(Cl)cc2)N(c2cc(Cl)c(=O)n(C)c2)C3=O)c(OC)n1 (stereo not drawn) [Example 47] is 270 nM

Summary line: Cc1nn(-c2ccnn2C)c2c1[C@H](c1ccc(Cl)cc1)N(c1cc(C)c(=O)n(C)c1)C2=O [Example 121] , His-Brd4(44-477) (Homo sapiens (Human), UniProt O60885), reported IC50 = 4000 nM

* * *

Answer each item with its documented pIC50.
Molecular target: His-CREBBP (1081-1197) bromodomain (Homo sapiens (Human), UniProt Q92793)
Sequence (Q92793 1081-1197): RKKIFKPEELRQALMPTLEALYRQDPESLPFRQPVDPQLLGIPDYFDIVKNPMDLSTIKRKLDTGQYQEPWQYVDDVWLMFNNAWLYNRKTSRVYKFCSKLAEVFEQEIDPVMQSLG
Experiment: AlphaScreen in-vitro binding assay for CREBBP
Details: biochemical
pIC50: −log10 of the molar value.

// field: pIC50; key: CNc1cc(N2C(=O)c3c(c(C)nn3C3CC3)C2c2ccc(Cl)cc2)nn2c(C)nnc12 (racemic) ; value = < 4.43

Just so you know, measured pIC50 for `Cc1nn(C(C)C)c2c1[C@H](c1ccc(Cl)cc1)N(c1cc(C)c(=O)n(C)c1)C2=O` came out at < 4.43

pIC50 recorded for this compound, `COc1ncc(-n2nc3c(c2C(C)C)[C@H](c2ccc(Cl)cc2)N(c2cc(C)c4onc(C)c4c2)C3=O)c(OC)n1` , is < 4.43

* * *

Molecular target: nuclear BRD4-NUT foci in HCC2494 NUT midline carcinoma cells (Homo sapiens (Human), UniProt O60885+Q86Y26)
Assay: Nut-foci formation assay
Conditions: 24 hours, read-out: HCS Brd4-NUT IC50
I'd appreciate it if you could supply pIC50 values for the items below.
The quantity pIC50 is defined as the negative base-10 logarithm of the molar concentration.

// recorded pIC50 for Cc1nn(C2COC2)c2c1C(c1ccc(Cl)cc1)N(c1cc(C)c3nnc(C)n3c1)C2=O (stereo not drawn) : 7.24

Kindly note the recorded pIC50 for `Cc1nn(C2CC2)c2c1[C@H](c1ccc(Cl)cc1)N(c1cc(C)c3nnc(C)n3n1)C2=O` , which is 5.05

Input CCn1nc2c(c1C)C(c1ccc(Cl)cc1)N(c1cc(C)c3nnc(C)n3c1)C2=O (stereo not drawn) . Output pIC50: 7.40

Briefly, pIC50 measured for `CNc1cc(N2C(=O)c3c(c(C)nn3C3CC3)[C@H]2c2ccc(Cl)cc2)nn2c(C)nnc12` : 7.40

pIC50 reading for `CCc1nn(C2CC2)c2c1[C@@H](c1ccc(Cl)cc1)N(c1cc(C)c3nnc(C)n3c1)C2=O` : 8.54
